The reported measurements were obtained from ChEMBL document CHEMBL1140256.

- assayNotes: Maximum plasma concentration in brain in diet induced obese mouse(DIO) at a oral dose of 10 mg/kg
- Format: ADME, organism-based
- Set-up: dose 10 mg/kg, route oral
measureName: Cmax (ng/mL)
One number for each entry, in ng/mL.

Exam item: Query (molecule): COc1cc(C(=O)NC2CCCN(Cc3ccc4c(c3)OCO4)C2)cc(OC)c1C (stereo unspecified) ; field requested: Cmax
Marked response: 5080

----------
- assayNotes: Half life time required to reach plasma concentration in dog after intravenous dose of 2.5 mg/kg
- Assay type: ADME, organism-based, Canis lupus familiaris
- Design: dose 2.5 mg/kg, route intravenous
measureName: half-life (h)
Answers are plain numbers, in h.

Exam item: Query (molecule): COc1cc(C(=O)NC2CCCN(Cc3ccc4c(c3)OCO4)C2)cc(OC)c1C (stereo unspecified) ; field requested: half-life
Marked response: 4.5
